Every entry's value here was drawn from patent US5534498A.

assay system: Activated human Protein C (Homo sapiens)
Construct: from tissue
Sequence (P04070 212-461 limits assumed): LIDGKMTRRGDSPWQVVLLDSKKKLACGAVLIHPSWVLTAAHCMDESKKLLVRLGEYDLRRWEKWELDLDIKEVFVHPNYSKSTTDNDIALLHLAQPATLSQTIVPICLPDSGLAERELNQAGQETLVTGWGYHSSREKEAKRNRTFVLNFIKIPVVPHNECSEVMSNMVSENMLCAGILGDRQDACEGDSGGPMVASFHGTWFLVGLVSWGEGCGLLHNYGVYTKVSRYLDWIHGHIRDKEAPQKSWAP
Sequence (P04070 43-197 partner limits assumed): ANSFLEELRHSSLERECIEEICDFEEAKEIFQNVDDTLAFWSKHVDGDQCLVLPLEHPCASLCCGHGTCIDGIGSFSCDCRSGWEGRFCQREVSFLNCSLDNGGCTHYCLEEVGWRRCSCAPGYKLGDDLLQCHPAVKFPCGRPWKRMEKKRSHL
experiment description: Protein C assay (Pefachrome PC substrate)
Format: biochemical
test conditions: [IC50 for Trypsin/IC50 for other enzyme]×100; lower = more trypsin selective
Non-standard residues stand in square brackets, D forms with d. Residues, ends and D or L forms follow the SMILES beside them. *: point of attachment. Boc = CC(C)(C)OC(=O)*
attribute measured: Calculated % Selectivity Protein C

Before answering, review these 2 worked examples.
>>> measurement("CC(C)COC(=O)NC(CC(=O)O)C(=O)N1CCCC1C(=O)NC(C=O)CCCN=C(N)N (stereo not drawn)")
"< 0.1%"
>>> measurement("N=C(N)NCCC[C@@H](C=O)NC(=O)[C@@H]1CCCN1C(=O)[C@H](CC(=O)O)NC(=O)OC12CC3CC(CC(C3)C1)C2")
"< 0.1%"

Now examine the next entry.
Consider the molecule CC(C)(C)OC(=O)N[C@H](CC(=O)O)C(=O)N1CCC[C@H]1C(=O)N[C@H](C=O)CCCNC(=N)N [Compound 12] (Boc-[dD]-Pro-Arg-aldehyde) . State its measured Calculated % Selectivity Protein C.
< 0.3%

----------
Documented Calculated % Selectivity Kallikrein across a set of compounds
assay system: human kallekrein (Homo sapiens, UniProt P03952)
Construct: 50 μL of 4 to 9 nM human kallekrein
Sequence (P03952 391-638 limits assumed): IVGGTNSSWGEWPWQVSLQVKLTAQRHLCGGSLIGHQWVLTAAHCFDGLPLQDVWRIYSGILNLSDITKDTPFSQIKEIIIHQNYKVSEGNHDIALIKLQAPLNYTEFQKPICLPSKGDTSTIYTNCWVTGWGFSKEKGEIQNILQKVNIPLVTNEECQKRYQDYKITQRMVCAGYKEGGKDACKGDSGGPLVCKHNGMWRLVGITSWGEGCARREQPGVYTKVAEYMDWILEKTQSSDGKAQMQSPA
Sequence (P03952 20-390 partner limits assumed): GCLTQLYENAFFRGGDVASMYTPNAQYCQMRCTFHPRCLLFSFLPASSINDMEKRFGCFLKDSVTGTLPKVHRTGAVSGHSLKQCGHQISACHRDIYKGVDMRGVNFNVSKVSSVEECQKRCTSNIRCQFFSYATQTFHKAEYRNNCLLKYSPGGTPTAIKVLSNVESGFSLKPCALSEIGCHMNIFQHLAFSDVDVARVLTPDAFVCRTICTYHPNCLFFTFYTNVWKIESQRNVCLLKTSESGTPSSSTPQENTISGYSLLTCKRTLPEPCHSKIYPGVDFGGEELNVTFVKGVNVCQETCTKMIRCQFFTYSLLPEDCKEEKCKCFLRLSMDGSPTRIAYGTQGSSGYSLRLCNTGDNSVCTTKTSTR
experiment description: Kallikrein assay (S-2302 substrate)
Format: biochemical
test conditions: [IC50 for Trypsin/IC50 for other enzyme]×100; lower = more trypsin selective
Non-standard residues stand in square brackets, D forms with d. Residues, ends and D or L forms follow the SMILES beside them. *: point of attachment. Boc = CC(C)(C)OC(=O)*

Before answering, review these 2 worked examples.
>>> measurement("CC(C)(C)OC(=O)N[C@H](CC(=O)O)C(=O)N1CCC[C@H]1C(=O)N[C@H](C=O)CCCNC(=N)N [Compound 12] (Boc-[dD]-Pro-Arg-aldehyde)")
"< 0.34%"
>>> measurement("CC(C)COC(=O)NC(CC(=O)O)C(=O)N1CCCC1C(=O)NC(C=O)CCCN=C(N)N (stereo not drawn) [Compound 10]")
"< 0.3%"

Now examine the next entry.
Consider the compound N=C(N)NCCC[C@@H](C=O)NC(=O)[C@@H]1CCCN1C(=O)[C@H](CC(=O)O)NC(=O)OC12CC3CC(CC(C3)C1)C2 [Compound 11] . State its measured Calculated % Selectivity Kallikrein.
< 1.3%

----------
Documented Calculated % Selectivity tPA across a set of compounds
assay system: recombinant tissue plasminogen activator (Homo sapiens, UniProt P00750)
Sequence (P00750 36-562): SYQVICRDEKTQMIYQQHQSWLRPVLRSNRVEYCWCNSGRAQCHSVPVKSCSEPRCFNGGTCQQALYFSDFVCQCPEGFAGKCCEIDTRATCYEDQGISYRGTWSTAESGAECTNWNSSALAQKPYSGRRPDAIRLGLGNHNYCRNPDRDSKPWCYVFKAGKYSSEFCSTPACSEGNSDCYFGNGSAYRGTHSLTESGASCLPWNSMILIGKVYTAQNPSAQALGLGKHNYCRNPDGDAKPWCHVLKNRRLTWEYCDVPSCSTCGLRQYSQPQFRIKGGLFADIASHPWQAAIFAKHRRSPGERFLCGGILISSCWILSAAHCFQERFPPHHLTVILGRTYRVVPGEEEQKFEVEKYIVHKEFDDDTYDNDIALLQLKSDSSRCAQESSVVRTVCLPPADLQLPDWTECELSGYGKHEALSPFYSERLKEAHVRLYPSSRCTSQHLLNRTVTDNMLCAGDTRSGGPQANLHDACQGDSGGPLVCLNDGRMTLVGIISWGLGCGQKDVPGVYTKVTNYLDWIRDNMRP
experiment description: Tissue plasminogen activator assay (S-2288 substrate)
Type: biochemical
test conditions: [IC50 for Trypsin/IC50 for other enzyme]×100; lower = more trypsin selective
Non-standard residues stand in square brackets, D forms with d. Residues, ends and D or L forms follow the SMILES beside them. *: point of attachment. Boc = CC(C)(C)OC(=O)*

Before answering, review these 2 worked examples.
>>> measurement("N=C(N)NCCC[C@@H](C=O)NC(=O)[C@@H]1CCCN1C(=O)[C@H](CC(=O)O)NC(=O)OC12CC3CC(CC(C3)C1)C2")
"< 0.1%"
>>> measurement("CC(C)(C)OC(=O)N[C@H](CC(=O)O)C(=O)N1CCC[C@H]1C(=O)N[C@H](C=O)CCCNC(=N)N [Compound 12] (Boc-[dD]-Pro-Arg-aldehyde)")
"< 0.3%"

Now examine the next entry.
Consider the compound CC(C)COC(=O)NC(CC(=O)O)C(=O)N1CCCC1C(=O)NC(C=O)CCCN=C(N)N (stereo not drawn) . State its measured Calculated % Selectivity tPA.
< 0.1%
